Target: hSTING (Homo sapiens)
Construct: SUMO; made in house; host or cells: E. coli Rosetta 2 (pLysS)
Sequence (Q86WV6 whole entry H232R): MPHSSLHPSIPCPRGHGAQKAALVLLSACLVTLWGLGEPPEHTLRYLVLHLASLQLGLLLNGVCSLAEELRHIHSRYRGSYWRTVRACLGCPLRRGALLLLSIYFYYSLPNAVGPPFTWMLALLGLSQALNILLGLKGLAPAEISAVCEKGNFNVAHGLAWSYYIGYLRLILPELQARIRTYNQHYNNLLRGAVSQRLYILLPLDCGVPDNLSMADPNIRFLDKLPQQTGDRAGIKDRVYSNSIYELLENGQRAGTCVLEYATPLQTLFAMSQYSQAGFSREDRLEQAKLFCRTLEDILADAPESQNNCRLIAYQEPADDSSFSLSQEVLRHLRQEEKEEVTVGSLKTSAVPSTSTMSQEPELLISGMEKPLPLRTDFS
Assay: STING based fluorescence polarization assay (F-c-di-GMP probe displacement)
Format: binding
Settings: 20 μM compound, 50 nM probe, 10 μM STING, 5 minutes; compared to HSD1077
measured endpoint: STING binding (fraction of F-c-di-GMP probe bound, Fbound), in words

CCc1cc(-c2cn[nH]c2)nc2ccc3[nH]ncc3c12 [Compound 9]; reduced STING binding
c1n[nH]cc1-c1nc2ccc3[nH]ncc3c2c2c1CCC2 [Compound 10]; reduced STING binding
